READOUT_TYPE: melting point

COC(=O)c1cccc(-c2nc(-c3ccc(C(F)(F)F)cc3)cs2)c1
142 to 143 °C
COC(=O)c1cccc(-c2nc(-c3cccc(C(F)(F)F)c3)cs2)c1
105 to 106 °C
CCOC(=O)c1ccc(-c2coc(-c3cccc(C(F)(F)F)c3)n2)cc1
132 to 133 °C

## Input Return reported melting point; argument: COC(=O)c1ccc(-c2nc(-c3ccc(Br)cc3)cs2)cc1
## Output 206 to 207 °C

## Input Return reported melting point; argument: COC(=O)c1ccc(-c2nc(-c3cc(C(F)(F)F)cc(C(F)(F)F)c3)co2)cc1
## Output 180 to 181 °C

## Input Return reported melting point; argument: O=C(O)c1ccc(-c2nc(-c3ccccc3C(F)(F)F)cs2)cc1
## Output 225 to 227 °C

## Input Return reported melting point; argument: CC(C)c1ccc(-c2csc(-c3ccc(C(=O)O)cc3)n2)cc1
## Output 257 to 258 °C

## Input Return reported melting point; argument: Br.CCOC(=O)c1ccc(-c2csc(-c3cccnc3)n2)cc1
## Output 234 to 236 °C

## Input Return reported melting point; argument: COC(=O)c1ccc(-c2nc(-c3cccc(OC(F)(F)F)c3)cs2)cc1
## Output 132 to 134 °C

## Input Return reported melting point; argument: COC(=O)c1ccc(-c2nc(-c3c(F)c(F)c(F)c(F)c3F)cs2)cc1
## Output 141 to 142 °C

###

- SUBJECT_OF_TEST: PPARγ-RXRα heterodimer (Homo sapiens, UniProt P19793+P37231)
- Sequence (P37231 1-477 isoform P37231-2): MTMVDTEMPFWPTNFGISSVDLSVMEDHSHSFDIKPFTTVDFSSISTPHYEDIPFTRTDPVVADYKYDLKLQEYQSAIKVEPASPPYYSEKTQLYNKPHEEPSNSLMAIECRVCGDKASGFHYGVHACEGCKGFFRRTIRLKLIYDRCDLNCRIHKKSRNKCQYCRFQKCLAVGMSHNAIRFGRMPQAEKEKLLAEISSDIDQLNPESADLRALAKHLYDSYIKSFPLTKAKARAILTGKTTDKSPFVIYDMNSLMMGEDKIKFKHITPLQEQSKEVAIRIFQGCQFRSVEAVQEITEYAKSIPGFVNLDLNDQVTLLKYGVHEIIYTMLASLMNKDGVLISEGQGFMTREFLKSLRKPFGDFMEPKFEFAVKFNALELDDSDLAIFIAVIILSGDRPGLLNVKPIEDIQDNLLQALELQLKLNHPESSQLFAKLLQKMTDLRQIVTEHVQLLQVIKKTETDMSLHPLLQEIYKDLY
- Sequence (P19793 1-462): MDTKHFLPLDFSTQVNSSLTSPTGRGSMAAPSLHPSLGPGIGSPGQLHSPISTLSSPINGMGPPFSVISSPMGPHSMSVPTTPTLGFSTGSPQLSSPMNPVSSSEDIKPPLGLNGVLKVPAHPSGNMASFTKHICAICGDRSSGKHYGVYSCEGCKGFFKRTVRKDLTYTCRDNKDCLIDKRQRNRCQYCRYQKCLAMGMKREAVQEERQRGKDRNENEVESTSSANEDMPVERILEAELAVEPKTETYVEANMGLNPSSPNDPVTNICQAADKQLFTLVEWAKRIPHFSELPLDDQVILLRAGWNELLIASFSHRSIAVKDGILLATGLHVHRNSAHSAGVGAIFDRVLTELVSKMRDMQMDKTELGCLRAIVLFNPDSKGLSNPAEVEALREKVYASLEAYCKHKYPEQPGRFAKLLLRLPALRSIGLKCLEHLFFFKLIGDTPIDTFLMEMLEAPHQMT
- PROCEDURE_SUMMARY: PPARγ-RXRα heterodimer ligand activity (luciferase reporter in PPARγ:RXRα:4ERPP/CHO-K1 cells)
- EXPERIMENTAL_CONDITIONS: luciferase fold induction, 48 hours
READOUT_TYPE: EC50 (nM)

Reference set, count: 8
Cc1cc(-c2csc(-c3cccc(C(=O)O)c3)n2)c(C)o1 [Example 72]
0.6
O=C(O)c1ccc(-c2cnc(-c3ccc(C(F)(F)F)cc3)s2)cc1 [Example 113]
60
CCOc1ccc(-c2csc(-c3cccc(C(=O)O)c3)n2)cc1 [Example 96]
1.9
O=C(O)c1ccc(-c2nc(-c3ccc(OC(F)(F)F)cc3)cs2)cc1 [Example 64]
310
CC(C)c1ccc(-c2csc(-c3cccc(C(=O)O)c3)n2)cc1 [Example 100]
5.1
O=C(O)c1cccc(-c2nc(-c3cc(Cl)sc3Cl)cs2)c1 [Example 95]
100
O=C(O)c1ccc(-c2nc(-c3ccc(Cl)cc3)co2)cc1 [Example 8]
92
O=C(O)c1ccc(-c2cnc(-c3ccc(C(F)(F)F)cc3)o2)cc1 [Example 110]
48

P = O=C(O)c1ccc(-c2nc(-c3ccc(C(F)(F)F)cc3)cs2)cc1 [Example 55]
Q = O=C(O)c1ccc(-c2nc(-c3ccc(C(F)(F)F)cc3)co2)cc1 [Example 9]
## Input Pick one: P or Q . Which one has the lower reported EC50? State your choice using its label.
## Output Q

###

Examples of molecules with documented melting point follow.

O=C(O)c1cccc(-c2nc(-c3ccc(C(F)(F)F)cc3)co2)c1
206 to 208 °C

## Input Return reported melting point; argument: COC(=O)c1ccc(-c2nc(-c3ccc(Cl)cc3)cs2)cc1
## Output 186 to 187 °C

## Input Return reported melting point; argument: O=C(O)c1ccc(-c2nc(-c3ccc(C(F)(F)F)cc3)cs2)cc1
## Output 164 to 165 °C

## Input Return reported melting point; argument: O=C(O)c1ccc(-c2nc(-c3cccnc3)cs2)cc1
## Output 303 to 304 °C

###

Examples of compounds with documented melting point follow.

Reference set, count: 4
COC(=O)c1ccc(-c2nc(-c3ccc(C(C)(C)C)cc3)cs2)cc1
154 to 155 °C
CCOC(=O)c1cccc(-c2nc(-c3ccc(C(C)(C)C)cc3)cs2)c1
96 to 97 °C
O=C(O)c1ccc(-c2nc(-c3ccccc3C(F)(F)F)co2)cc1
264 to 265 °C
COC(=O)c1ccc(-c2nc(-c3ccc(OC)cc3)co2)cc1
200 to 202 °C

## Input Return reported melting point; argument: CCOC(=O)c1ccc(-c2csc(-c3ccccc3)n2)cc1 [Example 102, ethyl 4-(2-phenyl-4-thiazolyl]benzoate]
## Output 72 to 73 °C

## Input Return reported melting point; argument: Cc1ccc(-c2csc(-c3ccc(C(=O)O)cc3)n2)cc1C
## Output 261 to 262 °C

###

Examples of compounds with documented melting point follow.

COC(=O)c1ccc(-c2nc(-c3ccc(Cl)s3)cs2)cc1
171 to 172 °C
Cc1cc(-c2csc(-c3cccc(C(=O)O)c3)n2)c(C)o1
174 to 175 °C
O=C(O)c1ccc(-c2cnc(-c3ccc(Cl)cc3)o2)cc1
268 to 270 °C
COC(=O)c1ccc(-c2nc(-c3ccc(OC(F)F)cc3)cs2)cc1
146 to 148 °C

Now take the following compound into account.
## Input Return reported melting point; argument: CCOC(=O)c1cccc(-c2nc(-c3ccc(C(C)C)cc3)cs2)c1
## Output 91 to 92 °C

###

Examples of compounds with documented melting point follow.

Reference set, count: 2
O=C(O)c1ccc(-c2csc(-c3ccncc3)n2)cc1
> 300 °C
O=C(O)c1ccc(-c2csc(-c3ccc(Cl)cc3)n2)cc1
284 to 285 °C

## Input Return reported melting point; argument: O=C(O)c1ccc(-c2coc(-c3ccc(C(F)(F)F)cc3)n2)cc1
## Output 294 to 295 °C

## Input Return reported melting point; argument: CCOC(=O)c1ccc(-c2coc(-c3ccccc3)n2)cc1 [Example 5, ethyl 4-(2-phenyl-4-oxazolyl)benzoate]
## Output 110 to 112 °C

## Input Return reported melting point; argument: CCCCc1ccc(-c2csc(-c3ccc(C(=O)O)cc3)n2)cc1
## Output 263 to 265 °C

## Input Return reported melting point; argument: Br.CCOC(=O)c1ccc(-c2csc(-c3ccncc3)n2)cc1 [Example 36]
## Output 248 to 250 °C

## Input Return reported melting point; argument: CCOC(=O)c1cccc(-c2nc(-c3cc(C)sc3C)cs2)c1
## Output 115 to 116 °C

## Input Return reported melting point; argument: O=C(O)c1cccc(-c2nc(-c3ccc(F)cc3F)cs2)c1
## Output 255 to 256 °C

## Input Return reported melting point; argument: CCOC(=O)c1ccc(-c2ncc(-c3ccc(Cl)cc3)s2)cc1
## Output 167 to 168 °C

###

READOUT_TYPE: melting point

O=C(O)c1ccc(-c2nc(-c3ccc(OC(F)F)cc3)co2)cc1 [Example 24]
261 to 262 °C
COC(=O)c1ccc(-c2nc(-c3cc(C)sc3C)cs2)cc1 [Example 79]
109 to 110 °C
CC(C)c1ccc(-c2csc(-c3cccc(C(=O)O)c3)n2)cc1 [Example 100]
214 to 215 °C
COc1ccc(-c2coc(-c3ccc(C(=O)O)cc3)n2)cc1 [Example 10]
286 to 287 °C
O=C(O)c1ccc(-c2nc(-c3cc(Cl)sc3Cl)cs2)cc1 [Example 94]
266 to 267 °C

## Input Return reported melting point; argument: CCOC(=O)c1cccc(-c2nc(-c3ccc(OCC)cc3)cs2)c1 [Example 82]
## Output 108 to 110 °C

## Input Return reported melting point; argument: COC(=O)c1ccc(-c2nc(-c3ccc(C(C)C)cc3)cs2)cc1 [Example 87]
## Output 134 to 135 °C

## Input Return reported melting point; argument: O=C(O)c1cccc(-c2nc(-c3cccc(C(F)(F)F)c3)cs2)c1 [Example 68]
## Output 229 to 230 °C

## Input Return reported melting point; argument: O=C(O)c1ccc(-c2nc(-c3ccc(OC(F)(F)F)cc3)cs2)cc1 [Example 64]
## Output 245 to 246 °C
